Data credit: the Kinase Knowledgebase extract (Sharma et al. 2016)

IC50 values recorded for UniProtKB Q16539
Sequence (Q16539 whole entry, looked up): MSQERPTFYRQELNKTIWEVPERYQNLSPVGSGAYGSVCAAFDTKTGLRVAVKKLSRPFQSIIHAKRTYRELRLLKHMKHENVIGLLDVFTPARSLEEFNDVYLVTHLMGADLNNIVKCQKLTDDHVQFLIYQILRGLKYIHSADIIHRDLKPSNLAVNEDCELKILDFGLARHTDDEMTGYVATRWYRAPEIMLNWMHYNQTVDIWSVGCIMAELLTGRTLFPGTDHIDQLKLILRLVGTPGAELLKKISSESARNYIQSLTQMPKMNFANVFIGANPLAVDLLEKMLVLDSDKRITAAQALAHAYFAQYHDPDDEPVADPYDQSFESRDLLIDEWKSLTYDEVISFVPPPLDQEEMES
measured.property: IC50 (µM)

>>> recorded_result("Clc1ccccc1-c1nc(-c2ccccc2)[nH]c1-c1ccncc1")
0.151
>>> recorded_result("Fc1ccc(-c2nc[nH]c2-c2ccncc2)cc1")
0.169
>>> recorded_result("COc1ccc(-c2nc(-c3ccccc3)[nH]c2-c2ccncc2)cc1")
0.301
>>> recorded_result("Oc1cccc(-c2nc(-c3ccccc3)[nH]c2-c2ccncc2)c1")
0.141
>>> recorded_result("Clc1ccc(-c2nc(-c3ccccc3)[nH]c2-c2ccncc2)cc1Cl")
0.028
>>> recorded_result("COc1cccc(-c2nc(-c3ccccc3)[nH]c2-c2ccncc2)c1")
0.549

[I] COc1ccc(CNc2nccc(-c3[nH]c(C4CCNCC4)nc3-c3cccc(C(F)(F)F)c3)n2)cc1
[II] Clc1cc(Cl)cc(-c2nc(-c3ccccc3)[nH]c2-c2ccncc2)c1
[III] c1ccc(-c2ccc(-c3nc(-c4ccccc4)[nH]c3-c3ccncc3)cc2)cc1
Asked: Hello, I need these entries ordered by IC50, highest reading first. Thanks! The labels, placed in the requested order, form the answer.
Given back: III, II, I
